EXPERIMENTAL_ENDPOINT: MDR1-MDCK efflux ratio

smiles_notation=CCc1nc(CN2C(=O)COc3ccc(F)cc32)cs1 obs_value=0.688
smiles_notation=Cc1ccccc1C(=O)N1CCC(O)(Cn2ccnc2C)CC1 obs_value=4.93
smiles_notation=CCN(CC(N)=O)CC(=O)N1c2ccccc2CCc2ccccc21 obs_value=28.9

* * *

Consider the following compounds and their measured intrinsic clearance, rat liver microsomes readings.
EXPERIMENTAL_ENDPOINT: intrinsic clearance, rat liver microsomes

smiles_notation=CC(=O)Nc1cnn(CC2CCN(C)CC2)c1 obs_value="≤ 10.7 mL/min/kg"
smiles_notation=CCOc1ccccc1C(=O)N1CCC(c2nc(-c3ccc(OC)cc3)c(C(N)=O)[nH]2)CC1 obs_value="237 mL/min/kg"
smiles_notation=COc1cc(CNC(=O)NC2CCCCC2)cc(OC)c1O obs_value="≤ 10.7 mL/min/kg"

* * *

The following compounds are shown together with reported intrinsic clearance, human liver microsomes values.
EXPERIMENTAL_ENDPOINT: intrinsic clearance, human liver microsomes

smiles_notation=Cc1cccc(NCCN2C(=O)CCC2=O)n1 obs_value="≤ 4.74 mL/min/kg"
smiles_notation=Cc1cc(C(=O)NC(C)(C)C#N)nn1-c1ccc(F)cc1 obs_value="≤ 4.74 mL/min/kg"
smiles_notation=Cc1cc(NCC2(c3ccncc3)CC2)ncn1 obs_value="≤ 4.74 mL/min/kg"

* * *

- EXPERIMENTAL_CONDITIONS: pH 6.8
EXPERIMENTAL_ENDPOINT: aqueous solubility

smiles_notation=Cc1nn(-c2ccccn2)c2nc(C3CC3)cc(C(=O)O)c12 experimental_endpoint="aqueous solubility" obs_value="51.2 µg/mL"
smiles_notation=Fc1cccc(Cl)c1CNCCc1c[nH]c2ccccc12 experimental_endpoint="aqueous solubility" obs_value="48.3 µg/mL"
smiles_notation=Cc1nnc(-c2ccccc2NCc2ccsc2)o1 experimental_endpoint="aqueous solubility" obs_value="0.93 µg/mL"
smiles_notation=Cn1cc(C(=O)O)c(C2CCCCC2)n1 experimental_endpoint="aqueous solubility" obs_value="33.6 µg/mL"
smiles_notation=Cc1cccc(Oc2cc(CN)ccn2)c1C experimental_endpoint="aqueous solubility" obs_value="30.1 µg/mL"
smiles_notation=CC(/C=C/C(=O)NO)=C\[C@@H](C)C(=O)c1ccc(N(C)C)cc1 experimental_endpoint="aqueous solubility" obs_value="22.1 µg/mL"
smiles_notation=CN(Cc1cscn1)c1nc2c(cc1C#N)CCC2 experimental_endpoint="aqueous solubility" obs_value="33.6 µg/mL"
smiles_notation=N#CCN(CN1C(=O)CC2(CCCC2)C1=O)C1CC1 experimental_endpoint="aqueous solubility" obs_value="38.5 µg/mL"
smiles_notation=CC(C)C[C@@H](C(N)=O)n1ccnc1-c1cccc2ccccc12 experimental_endpoint="aqueous solubility" obs_value="32.6 µg/mL"
smiles_notation=O=C(NCc1ccc(F)cc1)c1ccccn1 experimental_endpoint="aqueous solubility" obs_value="34.8 µg/mL"
smiles_notation=O=C(NCCN1CCC(O)(c2cccc(F)c2)CC1)c1cccc(F)c1 experimental_endpoint="aqueous solubility" obs_value="53.5 µg/mL"
smiles_notation=CN1CCN(C(=O)C2(NC(=O)c3ccc(C(F)(F)F)cc3)CCCC2)CC1 experimental_endpoint="aqueous solubility" obs_value="76.1 µg/mL"

* * *

Classify by fraction unbound, human plasma. Ranges: lowest (below 0.009), middle (0.009 to below 0.06), highest (0.06 or more)

compound=O=C(Nc1nc2cccc(-c3ccc(CN4CCS(=O)(=O)CC4)cc3)n2n1)C1CC1 assigned_class=highest
compound=CC1(C)Cc2cc(NC(=O)c3cnn4cccnc34)c(OCC3CC3)nc2O1 assigned_class=lowest
compound="NCC1CCCC1NC(=O)c1cc(N2CCNC2=O)ccc1F (stereo unspecified)" assigned_class=highest
compound="CC(=O)Nc1ccc(C(=O)N2CCCCC2c2nc(N)ncc2-c2cccc(Cl)c2)cc1 (stereo unspecified)" assigned_class=middle
compound="Cc1ncsc1C(=O)N1CCCCC1c1nc(N(C)C)ncc1-c1cccc(Cl)c1 (stereo unspecified)" assigned_class=lowest
compound=C=CC(=O)Nc1cccc(Nc2nc(Nc3ccc(Oc4ccnc(C(=O)NC)c4)cc3)ncc2F)c1 assigned_class=lowest
compound=NCCN1CCN(C/C=C/C(=O)N2CCC[C@@H](n3nc(-c4ccc(Oc5ccccc5)cc4)c4c(N)ncnc43)C2)CC1 assigned_class=middle
compound="Cc1nnc(-c2ccc3occ(-c4ccc(S(C)=O)cc4)c3c2)o1 (stereo unspecified)" assigned_class=middle
compound=C=CC(=O)N1CCC[C@H](n2c(=O)n(-c3ccc(Oc4ccccc4)cc3)c3c(N)ncnc32)C1 assigned_class=highest
